Measured values drawn from patent US12060347B2 for this set.

Each item that follows carries a reported pIC50.
- test.target: human PAR4 (Homo sapiens)
- Construct: expressed in transfected cells; host or cells: HEK293 PAR4 Clone 1.2A (BMS Arctic ID 383940)
- protocol.text: PAR4 FLIPR assay: antagonism of agonist-peptide-induced calcium mobilization in PAR4-expressing HEK293 cells
- Type: cell-based
- applied.conditions: H-Ala-Phe(4-F)-[…]NH2-induced intracellular calcium mobilization, 11-point curves
Answer as the number alone; pIC50 is minus log10 of concentration in mol/L.

Some solved cases for reference:
[[record]]
molecule = "COc1cnc2c(-c3nc4cc(F)c(O[C@@H](C)[C@@H](C)OC(=O)Nc5cnc(OC[C@H](C)O)nc5)cc4s3)cc(Cl)cc2c1 [Example 541]"
experimental_value = 8.47

[[record]]
molecule = "COc1cnc2c(-c3nc4cc(F)c(OC[C@@H](C)OC(=O)Nc5cnc(O[C@@H](C)CO)nc5)nc4s3)cc(C)cc2n1 [Example 693]"
experimental_value = 8.89

[[record]]
molecule = "COc1cc(C(O)C2(C)CCOCC2)c2nc(-c3cc(C)cc4nc(OC)cnc34)sc2c1 (stereo not drawn) [Example 674]"
experimental_value = 7.70


*Q* What measured pIC50 goes with COc1cnc2c(-c3nc4c(Cl)c(F)c(OC[C@@H](C)OC(=O)Nc5ccc(CCO)nc5)cc4s3)cc(C)cc2n1 [Example 542] ?
*A* 8.80

*Q* // next record Cc1cc(-c2cc3ccccc3[nH]2)c2ncc(OC(F)F)nc2c1 [Example 5]
*A* 6.06

*Q* Check COc1cnc2c(-c3nc4c(C)cc(OC[C@@H](C)OC(=O)Nc5cccnc5)nc4s3)cc(C)cc2n1 [Example 733] too.
*A* 8.96

*Q* COc1cnc2c(-c3nc4cc(F)c(O[C@@H](C)[C@@H](C)OC(=O)Nc5ccc(F)nc5)cc4s3)cc(Cl)cc2c1 [Example 789] ?
*A* 8.62

*Q* Likewise for CCOc1cnc2c(-c3nc4cc(F)c(O[C@@H](C)[C@@H](C)OC(=O)Nc5ccc(CCO)nc5)cc4s3)cc(C)cc2n1 [Example 526] ?
*A* 8.70

*Q* Same question for COc1cnc2c(-c3nc4cc(F)c(OC[C@@H](C)OC(=O)Nc5ccnc(OCCC(C)(C)O)c5)nc4s3)cc(C)cc2n1 [Example 699] please.
*A* 8.96

----------
- test.target: human PAR4 (Homo sapiens, UniProt Q96RI0)
- Sequence (Q96RI0 18-385): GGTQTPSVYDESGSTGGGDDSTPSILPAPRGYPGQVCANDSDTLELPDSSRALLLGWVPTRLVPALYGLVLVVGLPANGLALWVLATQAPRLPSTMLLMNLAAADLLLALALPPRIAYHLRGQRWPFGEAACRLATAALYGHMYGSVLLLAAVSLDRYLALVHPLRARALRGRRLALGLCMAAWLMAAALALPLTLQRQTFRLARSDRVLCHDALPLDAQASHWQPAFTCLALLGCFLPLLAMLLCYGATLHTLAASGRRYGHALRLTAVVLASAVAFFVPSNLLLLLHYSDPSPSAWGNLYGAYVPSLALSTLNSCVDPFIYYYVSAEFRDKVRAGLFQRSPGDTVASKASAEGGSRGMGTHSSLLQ
- protocol.text: PAR4 FLIPR assay: antagonism of agonist-peptide-induced calcium mobilization in PAR4-expressing HEK293 cells
- applied.conditions: H-Ala-Phe(4-F)-[…]NH2-induced intracellular calcium mobilization, 11-point curves
parameter: IC50 (nM)
Lab book: enter the figure in nM, no units written.

[[record]]
molecule = "CNC(=O)c1ccc(NC(=O)O[C@H](C)COc2cc3sc(-c4cc(C)cc5nc(OC)cnc45)nc3cc2F)cn1"
experimental_value = 0.4

[[record]]
molecule = "COc1ccc(NC(=O)OCC(C)Oc2cc3sc(-c4cc(C)cc5nc(OC)cnc45)nc3c(Cl)c2F)cn1 (racemic)"
experimental_value = 1.4

[[record]]
molecule = "COc1cnc2c(-c3cc4cc(OC)c(F)c(Cl)c4o3)cc(CO)cc2n1"
experimental_value = 1.8

[[record]]
molecule = "COc1cnc2c(-c3nc4c(Cl)c(F)c(OC[C@@H](C)OC(=O)Nc5ccnc(CO)c5)cc4s3)cc(C)cc2n1"
experimental_value = 1.8

[[record]]
molecule = "COc1cnc2c(-c3nc4c(Cl)c(F)c(O[C@@H](C)[C@@H](C)OC(=O)Nc5cccnc5)cc4s3)cc(Cl)cc2c1"
experimental_value = 2.9

[[record]]
molecule = "COc1cnc2c(-c3nc4cc(F)c(O[C@@H](C)[C@@H](C)OC(=O)Nc5cnc(C)cn5)cc4s3)cc(C)cc2n1"
experimental_value = 11


*Q* // lookup IC50 | system=human PAR4 (Homo sapiens, UniProt Q96RI0) | key= COc1cnc2c(-c3nc4cc(F)c(OC[C@@H](C)OC(=O)Nc5cccnc5)nc4s3)cc(C)cc2n1
*A* 0.7

*Q* Also need COCc1cnc2c(-c3nc4c(C)cc(OC)cc4s3)cc(Cl)cc2c1 , thanks.
*A* 1.8

*Q* Would you mind doing COc1cnc2c(-c3nc4cc(F)c(O[C@@H](C)[C@@H](C)OC(=O)Nc5ccc(C(=O)NCCO)nc5)cc4s3)cc(C)cc2n1 (stereo in doubt) as well?
*A* 3.1

----------
- test.target: human PAR4 (Homo sapiens)
- protocol.text: PAR4 FLIPR assay: antagonism of agonist-peptide-induced calcium mobilization in PAR4-expressing HEK293 cells
- applied.conditions: H-Ala-Phe(4-F)-[…]NH2-induced intracellular calcium mobilization, 11-point curves
// reported log10 of IC50 per item
The base-10 logarithm of IC50, taken with IC50 in nM, is what appears here.

Answered examples (2):
[[record]]
molecule = "COc1cnc2c(-c3nc4cc(F)c(O[C@@H](C)[C@@H](C)OC(=O)Nc5cnc(OC[C@H](C)O)nc5)cc4s3)cc(C)cc2n1"
parameter = "log10 of IC50"
experimental_value = 0.61

[[record]]
molecule = "COc1cnc2c(-c3nc4cc(F)c(OC[C@@H](C)OC(=O)Nc5ccc(C(=O)N6CCOC[C@@H]6CO)nc5)cc4s3)cc(C)cc2n1"
parameter = "log10 of IC50"
experimental_value = 0.96


*Q* Looking for the measured log10 of IC50 of CCOc1cnc2c(-c3nc4cc(F)c(OC[C@@H](C)OC(=O)Nc5cnc(OC[C@@H](C)O)nc5)nc4s3)cc(C)cc2n1 , can you help?
*A* 0.81

*Q* Proceed to COc1cnc2c(-c3nc4c(Cl)c(F)c(OCCOC(=O)Nc5cn[nH]c5)cc4s3)cc(C)cc2n1
*A* 1.28

*Q* Try this molecule next: COc1cnc2c(-c3nc4cc(F)c(OC[C@@H](C)OC(=O)Nc5ccc(C(N)=O)nc5)cc4s3)cc(C)cc2n1 [Example 433]
*A* -0.22

*Q* Moving on to COc1cnc2c(-c3nc4cc(F)c(O[C@@H](C)[C@@H](C)OC(=O)Nc5ccc(C(C)(C)O)nc5)cc4s3)cc(C)cc2n1
*A* 0.58

*Q* What would you report for COc1cccc2oc(-c3cc(C)cc4nc(OC(F)F)cnc34)cc12 ?
*A* 0.72

*Q* Next up: COc1cccc2sc(-c3cc(C)cc4nc(OC(F)F)cnc34)nc12
*A* 2.26

*Q* Same again, this time with COc1cnc2c(-c3nc4c(Cl)c(F)c(OC[C@@H](C)OC(=O)OCc5ccc(N)cn5)cc4s3)cc(C)cc2n1
*A* 2.11

*Q* And what about the molecule COc1cnc2c(-c3nc4cc(F)c(O[C@@H](C)[C@@H](C)OC(=O)Nc5ccnc(O[C@H](C)CO)c5)cc4s3)cc(C)cc2n1 ?
*A* 0.00

*Q* What do you have for COc1cnc2c(-c3nc4cc(F)c(OC[C@@H](C)OC(=O)Nc5ccc(C(=O)NCC6(CO)COC6)nc5)cc4s3)cc(C)cc2n1 ?
*A* 0.34

*Q* And C[C@H](Oc1cc2sc(-c3cc(Cl)cc4cc(OC(F)F)cnc34)nc2cc1F)[C@@H](C)OC(=O)Nc1cnc(OCCO)nc1 ?
*A* 0.41

*Q* Next record, please: COc1cnc2c(-c3nc4c(C)c(F)c(OC)cc4s3)cc(C(O)C3CC3)cc2n1 (centres unmarked)
*A* 2.15

*Q* Record: Cc1cc(-c2nc3c(F)cccc3s2)c2ncc(OC(F)F)nc2c1
*A* 0.99

----------
- test.target: human PAR4 (Homo sapiens)
- protocol.text: PAR4 FLIPR assay: antagonism of agonist-peptide-induced calcium mobilization in PAR4-expressing HEK293 cells
- applied.conditions: H-Ala-Phe(4-F)-[…]NH2-induced intracellular calcium mobilization, 11-point curves
Counter-ions that a name gives are not always drawn.
parameter: log10 IC50 (log10 of the value in nM)
Note: values are log10 of IC50 expressed in nM.

// worked examples, log10 IC50 included
[[record]]
compound = "COc1cnc2c(-c3nc4c(C)cc(OCCOC(=O)Nc5ccncc5)cc4s3)cc(C)cc2n1"
test_target = "human PAR4 (Homo sapiens)"
parameter = "log10 IC50"
experimental_value = 0.48

[[record]]
compound = "COc1cnc2c(-c3nc4cc(F)c(O[C@@H](C)[C@@H](C)OC(=O)Nc5cnc(CC(C)(C)O)nc5)cc4s3)cc(C)cc2n1"
test_target = "human PAR4 (Homo sapiens)"
parameter = "log10 IC50"
experimental_value = 0.00

[[record]]
compound = "COCc1cnc2c(-c3nc4c(OC)cccc4s3)cc(C)cc2n1"
test_target = "human PAR4 (Homo sapiens)"
parameter = "log10 IC50"
experimental_value = 1.15


*Q* Give its log10 IC50 value. Item: COc1cnc2c(-c3nc4cc(F)c(OC[C@@H](C)OC(=O)Nc5ccc(CO)nc5)cc4s3)cc(C)cc2n1
*A* 1.15

*Q* How about this compound: COc1cnc2c(-c3nc4cc(F)c(O[C@@H](C)[C@@H](C)OC(=O)Nc5cncc(OCCO)c5)cc4s3)cc(C)cc2n1
*A* -0.05

*Q* Next: COc1cnc2c(-c3nc4cc(F)c(O[C@@H](C)[C@@H](C)OC(=O)Nc5ccc(NC(C)=O)nc5)cc4s3)cc(C)cc2n1
*A* 0.54

*Q* // next record CCOc1cnc2c(-c3nc4cc(F)c(O[C@@H](C)[C@@H](C)OC(=O)Nc5ccc(C(=O)NC[C@H](C)O)nc5)cc4s3)cc(C)cc2n1 [Example 531, TFA]
*A* -0.15
